Every entry's value here was drawn from patent US7902361B2.

- subject.of.test: CDK2/cyclin A (Homo sapiens)
- method.description: Kinase assay CDK2/cyclin A
- particulars: Ki calculated (Cheng-Prusoff) from experimentally determined IC50 and Km,ATP; read-out: Kinase Inhibition Ki CDK2 - cyclin A
reported.endpoint: Ki

# lookup: Ki of Cc1c(-c2ccnc(Nc3cccc(CNS(=O)(=O)C(F)(F)F)c3)n2)sc(=O)n1C
600 nM

Returns the measured Ki for the input compound. Input: Cc1c(-c2ccnc(Nc3ccc(N4CCN(C)CC4)cc3)n2)sc(=O)n1C
230 nM

Data request, read-out Ki, for CCn1c(C)c(-c2ccnc(Nc3ccc(Cl)c(C(=O)OC)c3)n2)sc1=O
23000 nM

Recorded Ki of COCCNS(=O)(=O)c1cccc(Nc2nccc(-c3sc(=O)n(C)c3C)n2)c1 , please.
1300 nM
